biological target: Acetylcholinesterase (Homo sapiens, UniProt P22303); experiment: Inhibition of recombinant human AChE using acetylthiocholineiodide as substrate preincubated for 20 mins followed by substrate addition by Ellman's method
Sequence (P22303 whole entry): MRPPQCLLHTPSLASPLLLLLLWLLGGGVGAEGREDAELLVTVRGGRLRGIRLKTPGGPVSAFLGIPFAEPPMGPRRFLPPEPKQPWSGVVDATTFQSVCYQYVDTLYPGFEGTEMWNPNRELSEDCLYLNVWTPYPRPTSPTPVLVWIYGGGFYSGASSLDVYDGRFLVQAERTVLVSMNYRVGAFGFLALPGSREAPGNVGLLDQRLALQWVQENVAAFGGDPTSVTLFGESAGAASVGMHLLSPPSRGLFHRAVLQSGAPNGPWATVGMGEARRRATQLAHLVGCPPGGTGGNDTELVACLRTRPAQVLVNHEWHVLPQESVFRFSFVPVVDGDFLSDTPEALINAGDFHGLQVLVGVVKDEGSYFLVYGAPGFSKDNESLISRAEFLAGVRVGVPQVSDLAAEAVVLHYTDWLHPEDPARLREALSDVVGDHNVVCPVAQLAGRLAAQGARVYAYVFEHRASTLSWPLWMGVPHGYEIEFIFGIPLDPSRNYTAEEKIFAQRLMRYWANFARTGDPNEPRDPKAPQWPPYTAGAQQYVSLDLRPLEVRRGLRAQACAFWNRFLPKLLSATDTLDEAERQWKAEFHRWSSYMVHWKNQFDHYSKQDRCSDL

{"COMPOUND": "COc1cc(CNC(=O)CCCC/C=C/CCCNc2c3c(nc4cc(Cl)ccc24)CC2C=C(C)CC3C2)ccc1O (centres undefined)", "IC50": "5.64 nM"}
{"COMPOUND": "COc1cc(CNC(=O)c2ccc(CNc3c4c(nc5cc(Cl)ccc35)CC3C=C(C)CC4C3)cc2)ccc1O (centres undefined)", "IC50": "24.9 nM"}
{"COMPOUND": "COc1cc(CNC(=O)CCCCCNc2c3c(nc4cc(Cl)ccc24)CC2C=C(C)CC3C2)ccc1O (centres undefined)", "IC50": "4.35 nM"}
{"COMPOUND": "COc1cc(CNC(=O)CCCCCCNc2c3c(nc4cc(Cl)ccc24)CC2C=C(C)CC3C2)ccc1O (centres undefined)", "IC50": "0.77 nM"}

* * *

biological target: Acetylcholinesterase (Homo sapiens, UniProt P22303); experiment: Mixed-type inhibition of recombinant human AChE assessed as dissociation constant for protein-substrate-compound complex using acetylthiocholine iodide as substrate by Cornish-Bowden plot analysis
pKi: −log10 of the molar value.

{"COMPOUND": "COc1cc(CNC(=O)CCCCCCNc2c3c(nc4cc(Cl)ccc24)CC2C=C(C)CC3C2)ccc1O (stereo unspecified)", "pKi": 9.03}

* * *

Listing of recorded pIC50 by entry.
target: Cholinesterase (Homo sapiens, UniProt P06276); assay: Inhibition of human serum BChE using butyrylthiocholineiodide as substrate preincubated for 20 mins followed by substrate addition by Ellman's method
Sequence (P06276 whole entry): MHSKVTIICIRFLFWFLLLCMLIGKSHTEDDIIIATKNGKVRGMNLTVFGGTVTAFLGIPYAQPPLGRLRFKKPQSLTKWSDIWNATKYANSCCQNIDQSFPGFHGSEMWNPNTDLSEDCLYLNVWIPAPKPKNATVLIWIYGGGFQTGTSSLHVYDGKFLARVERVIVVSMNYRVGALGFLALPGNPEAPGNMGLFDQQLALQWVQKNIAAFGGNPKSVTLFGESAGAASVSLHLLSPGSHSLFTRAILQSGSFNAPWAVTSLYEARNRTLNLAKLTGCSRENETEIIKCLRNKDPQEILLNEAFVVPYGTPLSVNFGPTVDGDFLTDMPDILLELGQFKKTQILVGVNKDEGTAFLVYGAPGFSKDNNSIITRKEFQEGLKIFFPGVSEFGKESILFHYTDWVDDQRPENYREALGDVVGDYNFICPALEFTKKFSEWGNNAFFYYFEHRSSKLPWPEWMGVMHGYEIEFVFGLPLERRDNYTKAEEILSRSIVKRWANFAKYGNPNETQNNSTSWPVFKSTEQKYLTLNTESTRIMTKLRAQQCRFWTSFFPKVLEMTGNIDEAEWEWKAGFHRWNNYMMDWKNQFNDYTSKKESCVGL
pIC50: −log10 of the molar value.

{"COMPOUND": "COc1cc(CNC(=O)CCCCCNc2c3c(nc4cc(Cl)ccc24)CC2C=C(C)CC3C2)ccc1O (stereo not given)", "TARGET OR SYSTEM": "Cholinesterase (Homo sapiens, UniProt P06276)", "pIC50": 7.15}
{"COMPOUND": "COc1cc(CNC(=O)CCCCCCCCNc2c3c(nc4cc(Cl)ccc24)CC2C=C(C)CC3C2)ccc1O (stereo not given)", "TARGET OR SYSTEM": "Cholinesterase (Homo sapiens, UniProt P06276)", "pIC50": 7.44}
{"COMPOUND": "COc1cc(CNC(=O)c2ccc(CNc3c4c(nc5cc(Cl)ccc35)CC3C=C(C)CC4C3)cc2)ccc1O (stereo not given)", "TARGET OR SYSTEM": "Cholinesterase (Homo sapiens, UniProt P06276)", "pIC50": 6.54}
{"COMPOUND": "COc1cc(CNC(=O)CCCCCCCNc2c3c(nc4cc(Cl)ccc24)CC2C=C(C)CC3C2)ccc1O (stereo not given)", "TARGET OR SYSTEM": "Cholinesterase (Homo sapiens, UniProt P06276)", "pIC50": 7.29}
{"COMPOUND": "COc1cc(CNC(=O)CCCCNc2c3c(nc4cc(Cl)ccc24)CC2C=C(C)CC3C2)ccc1O (stereo not given)", "TARGET OR SYSTEM": "Cholinesterase (Homo sapiens, UniProt P06276)", "pIC50": 7.28}

* * *

assay: Permeability of the compound in PBS/EtOH buffer (70:30) by PAMPA-BBB assay; assay type: ADME; details: read-out: permeability

{"COMPOUND": "COc1cc(CNC(=O)CCCCCCCCNc2c3c(nc4cc(Cl)ccc24)CC2C=C(C)CC3C2)ccc1O (stereo not given)", "Papp, ×10⁻⁶ cm/s": 21.8}
{"COMPOUND": "COc1cc(CNC(=O)Cc2cn(CCCCC3=CC4Cc5nc6cc(Cl)ccc6c(N)c5C(C3)C4)nn2)ccc1O (stereo not given)", "Papp, ×10⁻⁶ cm/s": 8.8}
{"COMPOUND": "COc1cc(CNC(=O)CCCCCCNc2c3c(nc4cc(Cl)ccc24)CC2C=C(C)CC3C2)ccc1O (stereo not given)", "Papp, ×10⁻⁶ cm/s": 17.2}
{"COMPOUND": "COc1cc(CNC(=O)CCCCCCCNc2c3c(nc4cc(Cl)ccc24)CC2C=C(C)CC3C2)ccc1O (stereo not given)", "Papp, ×10⁻⁶ cm/s": 20.1}
{"COMPOUND": "COc1cc(CNC(=O)CCCCNc2c3c(nc4cc(Cl)ccc24)CC2C=C(C)CC3C2)ccc1O (stereo not given)", "Papp, ×10⁻⁶ cm/s": 11.5}
{"COMPOUND": "COc1cc(CNC(=O)CCCC/C=C/CNc2c3c(nc4cc(Cl)ccc24)CC2C=C(C)CC3C2)ccc1O (stereo not given)", "Papp, ×10⁻⁶ cm/s": 16.8}
{"COMPOUND": "COc1cc(CNC(=O)CCCC/C=C/C(C)C)ccc1O", "Papp, ×10⁻⁶ cm/s": 10.3}
{"COMPOUND": "COc1cc(CNC(=O)CCCCCNc2c3c(nc4cc(Cl)ccc24)CC2C=C(C)CC3C2)ccc1O (stereo not given)", "Papp, ×10⁻⁶ cm/s": 14.9}
{"COMPOUND": "COc1cc(CNC(=O)CCCC/C=C/CCCNc2c3c(nc4cc(Cl)ccc24)CC2C=C(C)CC3C2)ccc1O (stereo not given)", "Papp, ×10⁻⁶ cm/s": 22.3}
{"COMPOUND": "COc1cc(CNC(=O)c2ccc(CNc3c4c(nc5cc(Cl)ccc35)CC3C=C(C)CC4C3)cc2)ccc1O (stereo not given)", "Papp, ×10⁻⁶ cm/s": 14.3}

// data source = ChEMBL document CHEMBL4706642
